- assay protocol: yeast display, Sf9 membrane polyspecificity reagent, FACS + sequencing; frameworks hold sequencing errors
attribute measured: polyreactivity (PSR sort gate)

Some sequences with recorded polyreactivity (PSR sort gate):
- sequence data: "QVQLVESGGGLVQAGGSLRLSCAASGRIFGPYAMGWYRPATGKERELVAAISSRGSSTYYADSVKGRFTISRDNAKNTVYLQMNSLKPEDTAVYYCAARDYLAYYWGPSLYTFDYWGQGTEVTVSS"
  polyreactivity (PSR sort gate): "high polyreactivity"
- sequence data: "QVQLVESGGGLVQAGGSLRLSCAASGFTFYYNAMGWYRQAPGKERELVAAISSRGTSTYYADSVKGRFTISRDNAKNTVYLQMNSLKPEDTAVYYCNTDRIGRYYQSYGGGHMDYWGQGTQVTVSS"
  polyreactivity (PSR sort gate): "high polyreactivity"
- sequence data: "QVQHVESGGALVQAGGSLRLSCAASARTFPGYTMGWYRQAPGKETELVAAITRVGTTYYADSVKGRFTISRDNAKNTVYLQMNSLKPEDTAVYYCAAVISQGFIRYYYWGQGTQVTVSS"
  polyreactivity (PSR sort gate): "high polyreactivity"
- sequence data: "QVQLVESGGGLVQAGGSLRLSCAASGLIFKLYAMGWYRQAPGKERELVAAITDRGGSTYYADSVKGRFTISRDNAKNTVYLQMNSLKPEDTAVYYCAAPYAGWRDGGDYWGQGTQVTVSS"
  polyreactivity (PSR sort gate): "low polyreactivity"
- sequence data: "QVQLVESGGGLVQAGGSLRLSCAASGRTLRRNTMGWYRQAPGKERELVAAISWSGGSTYYADSVKGRFTISRDNPKNTVYLQMNSLKPEDTAVYYCAKVPRIGSYEMGYWGQGTQVTVSS"
  polyreactivity (PSR sort gate): "high polyreactivity"
- sequence data: "QVQLVESGGGLVQAGGSLRLSCAASGSTFPLYVMGWYRQSPGKERELVAAIDWSGGSTYYADSVKGRFTISRDNAKNTVFLQMNSLKPVDTAVYYCNRKRYGYDYEYWGQGTQVTVSS"
  polyreactivity (PSR sort gate): "low polyreactivity"

Lab note: each sequence below needs its polyreactivity (PSR sort gate) filled in.
1. QVQLVESGGGLVQAGGSLRLSCAASGFIFRNYAMGWYRQAPGKERELVAAITRSGTSTYYADSVKGRFTISRDNAKNTVYLQMNSLKPEDTAVYYCAARAWSSRRRLMYYWGQGTQVTVSS
2. QVQRVESGGGIVQAGGSLRLSSAASGSIYLYHAMGWYRPERGKERQLVAAIRSGGITYYADSVKGRFTISRDNAKNTVYLQMYSLKPEDTADYYCAAKFYWKGTPKKYYYWGQGTQETVSS
3. QVQLVESGGGLVQAGGSLRLSCAASGFTFVSYAMGWYRQAPGKERELVAVISKSGSRTSYAESVKGRFTISRDNAKNTVYLQMNSLKPEDTAVYYCAVFYTRIGPRYDYWGQGTQVTVSS
4. QVQLQESGGGLVLAGGSMRLSCAASGSISAHAYMGWERQAPGKEREHVAGINYGDNTNYADSVKGRFTISRDNEHRVSADEQPETGRYRGVLLRGFLELFYYYIYWGQGTQVTVSS
5. QVQLVESGGGLVQAGCSLRLSCAASGRIITRYPMGWYRQAPGKERELVAAISYGGGGTYYADSVKGRFTISRDNAKNTVYLQMNSLKPDDTAVYYCATDDPLSQINEQGMDYWGQGTQVTVSS

Ans.
high polyreactivity
high polyreactivity
high polyreactivity
high polyreactivity
low polyreactivity

---

- assay protocol: yeast display, Sf9 membrane polyspecificity reagent, FACS + sequencing; frameworks hold sequencing errors
attribute measured: polyreactivity (PSR sort gate)

Record excerpt, results attached:
- sequence data: "QVQLVESGGGLVQAGGSLRLSCAASGRTFNYYAMGWYRQAPGKERELVATITFSGDGSTYYAHSVKGRFTISRDNAKNTVYLHMNSLKPEDTAVYYCTADIEKSYNYWGQGTQVTVSS"
  polyreactivity (PSR sort gate): "low polyreactivity"
- sequence data: "QVQLVESGGGLVQAGGSLRISCAASGFILKDNAMGWYRQAPGKERELFAAISSGGGTYYADSEKGRFTITRDNAKNTVYLQMNSLNPEDTAVYYCNGDDLYSLNDSSEDYWGQGSQVTVSS"
  polyreactivity (PSR sort gate): "high polyreactivity"
- sequence data: "QVQLVESGGGLVQAGGSLRLSCAASGNILRFNAMGWYRQAPGKERELVAAISRSGGTTYYADSVKGRFTISRDNAKNTVYLQMNSLKPEDTAVYYCAARSRYGESPGYYWGQGTQVTVSS"
  polyreactivity (PSR sort gate): "high polyreactivity"
- sequence data: "QVQLVESGGGLVQAGGSLRLSCAASGRTFDVYAMGWYRQAPGKERELVAAITSGGSTYYADSVKGRFTISRDNAKNTVYLQMNSLKPEDTAVYYCAKASSATRYVQLRQDYDYWGQGTQVTVSS"
  polyreactivity (PSR sort gate): "low polyreactivity"
- sequence data: "QVQLVESGGGLVQAGGSLRLSCAASGLTFRSYTMGWYRQAPGTERELVAAISSGGSTYYADSVKGRFTISRDNAKNTVYLQMNSLKPEDTAVYYCAAPRGHGKYYSWGQGTQVTVSS"
  polyreactivity (PSR sort gate): "high polyreactivity"
- sequence data: "QVQLVESGGGLVQAGGSLRLSCAASGSIFGYYTMGWYRQAPGKERELVAGITSTGNTNYADSVKGRFTISRDNAKNTVYLQMNSLKPEDTAVYYCAADSESTWDYGWELEVGYDYWGQGTQVTVSS"
  polyreactivity (PSR sort gate): "low polyreactivity"
- sequence data: "QVQLVESGGGLVQAGGSLRLSCAASGIIFWDYAMGWYRQAPGKEREFVAAINTSGGTTTYADSVKGRFTISRDNAKNTVYLQMNSLKPEDTAVYNCAADPWGYYSYAYYYWGQGTQVTVSS"
  polyreactivity (PSR sort gate): "low polyreactivity"
- sequence data: "QVQIVESGGVLDQAGGSLRLSCAATGSTFAKNAMGWYRQAPGKERELVAAITSGGSTYYADSVKGRFTISRDNAKNTVYLQMYSLKPEDTAVYYCAVDYPWDIFIYWVQNYDHWGHGTQVTVSS"
  polyreactivity (PSR sort gate): "high polyreactivity"
- sequence data: "QVQLVESGGGLFQAGGSLRLSCAATGRTIVIYAMRWYRQAPGKERELVAAISFSGDTAYYADSVKGRFTISRDNAKNTVYLQMNSLKPDHTAVYYCAAVTQPWSYYRRDYWGQGTQVTVSS"
  polyreactivity (PSR sort gate): "high polyreactivity"
- sequence data: "QVQLVESGGGLVQAGGRLRVSCATSGRTFGKYAMGWYRQAPGKERELVATISRSGGSTYYADSVKGRFTISRDNAKNTVYLQMNSLNPVDNAVYYCNAVTSRYIWPPGLDRYHYWGQGTQVTVSS"
  polyreactivity (PSR sort gate): "high polyreactivity"

As a next step, examine the sequence that follows.
Looking up `QVQLVESGGGLVQAGGSLRLSCAASGSIFGNAMGWYRQAPGKERELVAAISRRGGRTYYADSVKGRFTISRDNAKNTVYLQMNSLKPEDTAVYYCNKYVTPWNEMDYWGQGTQVTVSS` , I found its polyreactivity (PSR sort gate) recorded as high polyreactivity

---

- assay protocol: yeast display, Sf9 membrane polyspecificity reagent, FACS + sequencing; frameworks hold sequencing errors
attribute measured: polyreactivity (PSR sort gate)

- sequence data: "QVQLLESGGCLVQAGGSLRLSCAASGSTFWHNAMGWYRQAPGKERELVAAISSGSSTYYADSVKGRFTISRDNAKNTVYLQMNSLKPEDTAVYYCAKELYLGYRYWGYYWGQGTQVTVSS"
  endpoint result: "high polyreactivity"
- sequence data: "QVQLVESGGGLVQAGGSLRLSCASSGSTYYVYGMVWYRQAPGKERELVAAISWSGGDTYYADSVKGRFTISRDNAKKTVYFQMNPLKPEDTGVYYCAAVYNYPVVCEYDYWGQGTQVTVSS"
  endpoint result: "high polyreactivity"
- sequence data: "QVQLVESGGGLVQAGGSLRLSCAASGRTFPVYAMGWYRQAPGKEREFVAAISRRGGSTYYADSVKGRFTISRDNAKNTVYLQMNSLKPQDTAVYYCAKVYYLYGAQHNPGRYDYWGQGTQLTVSS"
  endpoint result: "high polyreactivity"
- sequence data: "QVQLVESGGGLLQAGGSLRLSCAASGSIFNYSAMGWYRQAPGTERELVATISSGGNTKYADSVKGRFTISRDNAKNTVYLQMNSLKPEDTAVYYCAARWQHSGYRDRYWYDYWGQGTQVTVSS"
  endpoint result: "low polyreactivity"
- sequence data: "QVQLVESGGGLVQAGGSLRLTCAASGITFDLNAKGWYRQAPGKERELVAAIFRGGSTYYADSVKGRFTISRDNAKNTVYLQMNSLKPEDTAVYYCAAAYYRVGRAYPHEAYDYWGQGTQVTVSS"
  endpoint result: "low polyreactivity"
- sequence data: "QVQLVESGGGLVQAGGSLRLSCAASGITLTIYVMGWYRQAPGKEREFVAAISKSGGSTYYADSVKGRFTISRDNAKNTVYLQMNSLKPEDTAVYYCAADVILYDFADYYVIYDYWGQGTQVTVSS"
  endpoint result: "high polyreactivity"

List polyreactivity (PSR sort gate) for every entry below, keeping the order given.
1. QVQLVESGGGLVQARGSLRLSCAASGSTFSYYTMGWYREAPGKERELVAAITRRGDSTYADSVKGRFTISRDNAMNTVYLQLNSLKPEDTAVYYFAADDYVGVSGMDYWGQGTQVTVSS
2. QVQLVESGGGLVQAGGSLRLSCAASGRTFASYAMGWYRQAPGKERDFVASISRRGGSTNYADSVKGRFTISRDNAKNTVYLQMNSLIPEDNAVYYCAKRFTLPLSEYDYWGQGTQVTVSS
3. QVQLVESGGGLVQAGGSLRLSCAASGITFYRYAMGWSRQAPGKERELVAAITWSGGSTYYADSVKGRFTISRDNAKNTVYLQMNSLKPEDTAVYYCAAVLYSPDFFGNYDYWGQGTQVTVSS
4. QVQLVESGGGLVQAGGSLRLRCAASGSTFYLNAQGWYRQATGKEREFVAAITVSGGSTYYADSVKARFTISRDNAKNTVYLKMNSLKPEDTAVYYCARELLSPTYQRWYYYWGQGTQVTVSS
5. QVQLVESGGGLVQAGGSLRLSCAASGSTFASNAMGWYRQAPGKERELVAAISGSGGRTYYADSVKGRFTISRDNAKNTVYLQMNSLKQEDTAVYYCAADWVRRYNYWGQGTQVTVSS
6. QVQLVESGGGLVQAGGSLRLSCAASGLTFGPYAMGWYRQAPGKERELVAAITSGGYTNYADSVKGRFTISRDNAMNTVYLQMNSLKPEDTAVYFCATSYYLAYRSITPYDYWGQGTQVTVSS
7. QVQLVESGGGLVQAGGSLRLSCAASGNTFWDNAMGWYRQAPGKERELVAAIRWSTGSTHYADSVKGRFTISRDNAKNTVYLQMNSLKPEDTAVYYCAATDYYYYRDKYYGYDYWGQGTQVTVSS

Ans.
low polyreactivity
high polyreactivity
low polyreactivity
low polyreactivity
high polyreactivity
low polyreactivity
low polyreactivity

Provide reported polyreactivity (PSR sort gate) for each item, in the same order as listed.
1. QVQLVESGGGLVQAGGSLRLSCAASGSNIRSNAMGWYRQAPGKERELVAAISRTGGRTYYADSVKGRFTISRDNEKNTVYLQMKSLKPEYTAVYYCAASSSGSGGYWGQCTQVTVSS
2. QVHLVESGGGLVQAGGSLRLSCASSGSTFGYYAMGWYRQAPGKERELVAAITGRGGSTYYADSVKGRFTISRDNAKNTVYLQLISLKQEDTAVYYCAVGKYRLYYSGAYGYWGQGTQVTVSS
3. QVQLVDSWGGLVQAGGSLRLSCAASGFIFPYNTMGWYRQAPGKERELVAAISSGGSTYYADSVKGRFTISRDNAKNTVYLQMNSLKPEDTAVYYCAVRGRRSPYGYWGQGTQVTVSS
4. QVKLVESGGGLVQAGGSLRISCAASGRIFKIYAMGWYRQAPGKERELVAAISRGGRTYYADSVKGRFTISRDNAKNTVDLQMNSLKPEDTEVYYCAADLLISPEFYYWGQGTQVTVSS
5. QVQLVESGGGLVQAGGSLRLSCAASGSNFVRNTMGWYRQAPGKESELVATISSGGRTNYADSVKGRFTISRDNAKNTVYLQLNSLKPEDTAVYYCNRPRWYGGSPYYYWGQGTQVTVSS
6. QVQLVESGGGLVQAGGSLRLSCADSGSIGLYAMGWYRQAPGKETELVAVISRNGGSTYYADSVKGRFTISRDNAKNTVYLQMNSLKPEDTAVYYCAKRRLERGTGDYWGQGTQVTVSS
7. QVQLVESGGGLVQAGGSLRLSCAASGINFRYYAMGWYRQATGKERELVADISSDGGTYYADSVKGRFKISRDNAQNTVYLQMNSLKPEDTAVYYCAADYQFYWHYYYWGQGTQVTVSS

Ans.
1: high polyreactivity; 2: high polyreactivity; 3: high polyreactivity; 4: high polyreactivity; 5: high polyreactivity; 6: high polyreactivity; 7: high polyreactivity

For `QVQLVESGGGLVQAGGSLRLSCAASGSIFRSYAMGWYRQAPGKERELVAGISYSGGSTYYADSVKGRFTISRDKAKNTVYLQMNSLKPEDTAVYYCNVDGGTYFFFVGAWGEYDYWGQGTQVTVSS` the sequence record lists polyreactivity (PSR sort gate) as low polyreactivity
